Reference for the values: patent US20210087291A1

subject-of-test: T1, cynomolgus TIM-3 on isolated cyno CD14+ monocytes (cynomolgus)
T1 construct: whole, on cells
protocol-notes: flow cytometry, cyno CD14+ monocytes cyno2
measured-attribute: MFI (MFI)
I only need the number, in MFI, no unit after it.

Some binders with recorded MFI:
Tim3_0016 (antibody, V domains shown, also called clone 0016) VH: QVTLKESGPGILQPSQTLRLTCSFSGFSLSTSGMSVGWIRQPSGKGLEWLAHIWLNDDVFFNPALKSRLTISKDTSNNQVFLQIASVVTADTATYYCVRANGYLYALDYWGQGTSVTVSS VL: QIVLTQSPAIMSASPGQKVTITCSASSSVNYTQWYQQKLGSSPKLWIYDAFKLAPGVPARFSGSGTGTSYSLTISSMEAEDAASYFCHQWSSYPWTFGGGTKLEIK
177
Tim3_0021 (antibody, V domains shown) VH: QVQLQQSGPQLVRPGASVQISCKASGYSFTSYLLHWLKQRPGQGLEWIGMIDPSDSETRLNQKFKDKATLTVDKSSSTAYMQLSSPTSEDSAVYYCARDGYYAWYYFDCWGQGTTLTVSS VL: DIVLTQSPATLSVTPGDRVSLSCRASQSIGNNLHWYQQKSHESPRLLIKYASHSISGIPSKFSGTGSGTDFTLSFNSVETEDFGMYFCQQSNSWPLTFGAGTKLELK
473
Tim3_0028 (antibody, V domains shown) VH: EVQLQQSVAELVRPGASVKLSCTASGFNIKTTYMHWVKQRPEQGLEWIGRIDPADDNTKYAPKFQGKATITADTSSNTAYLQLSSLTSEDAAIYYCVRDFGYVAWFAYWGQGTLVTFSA VL: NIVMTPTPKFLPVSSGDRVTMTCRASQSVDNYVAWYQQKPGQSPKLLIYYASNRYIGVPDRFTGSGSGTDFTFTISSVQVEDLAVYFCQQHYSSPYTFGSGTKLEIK
3000
Tim3_0033 (antibody, V domains shown) VH: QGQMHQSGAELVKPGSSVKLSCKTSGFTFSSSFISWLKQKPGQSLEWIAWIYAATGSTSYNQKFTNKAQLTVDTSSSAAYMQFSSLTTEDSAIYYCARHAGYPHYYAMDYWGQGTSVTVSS VL: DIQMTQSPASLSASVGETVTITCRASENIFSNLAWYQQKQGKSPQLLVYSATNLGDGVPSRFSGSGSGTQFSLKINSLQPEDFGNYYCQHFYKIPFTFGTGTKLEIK
81

-- ask Requested read-out: MFI. Entry: Tim3_0022 (antibody, V domains shown) VH: EVQLQESGPSLVKPSQTLSLTCSVTGDSIASAYWNWIRKFPGNKLEYMGYINYSGSTYYNPSLKSRISITRDTSQNQYYLQLNSVTTEDTATYYCVTGDYFDYWGRGTTLTVSS VL: DIQMTQSPSSLSAYLGGKVTITCKARQDVRKNIGWYQHKPGKGPRLLIWYTSTLQSGIPSRFSGSGSGRDYSFNINNLEPEDIATYYCLQYDNLPFTFGTGTKLEIR
-- reply 134

-- ask Can you share its MFI? I mean this binder: Tim3_0030 (antibody, V domains shown) VH: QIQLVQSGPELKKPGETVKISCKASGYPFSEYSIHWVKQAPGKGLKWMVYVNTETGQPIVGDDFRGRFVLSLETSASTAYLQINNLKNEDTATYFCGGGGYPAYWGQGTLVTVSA VL: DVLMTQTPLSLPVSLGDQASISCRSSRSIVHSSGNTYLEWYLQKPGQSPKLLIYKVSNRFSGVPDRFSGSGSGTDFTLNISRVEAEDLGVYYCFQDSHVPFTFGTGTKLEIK
-- reply 163

-- ask For the binder shown here, Tim3_0016 variant (Tim3_0018) (antibody, V domains shown, also called TIM3-0016 variant (0018); aTim3 0018) VH: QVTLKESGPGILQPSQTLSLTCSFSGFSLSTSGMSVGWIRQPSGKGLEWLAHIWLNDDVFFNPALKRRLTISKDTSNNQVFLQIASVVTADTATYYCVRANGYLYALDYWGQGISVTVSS VL: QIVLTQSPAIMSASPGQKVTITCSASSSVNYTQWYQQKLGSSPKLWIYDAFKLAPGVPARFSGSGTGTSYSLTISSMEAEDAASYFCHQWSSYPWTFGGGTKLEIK , give the reported MFI.
-- reply 480

-- ask Data request, read-out MFI, for Tim3_0038 (antibody, V domains shown) VH: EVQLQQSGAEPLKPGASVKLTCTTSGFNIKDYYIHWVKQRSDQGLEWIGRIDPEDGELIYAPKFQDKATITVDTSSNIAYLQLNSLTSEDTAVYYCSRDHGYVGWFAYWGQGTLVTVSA VL: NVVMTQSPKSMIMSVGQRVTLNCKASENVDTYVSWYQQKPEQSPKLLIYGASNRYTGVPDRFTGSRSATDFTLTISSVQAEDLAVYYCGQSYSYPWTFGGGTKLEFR
-- reply 107

-- ask Please look up its MFI: Tim3_0026 (antibody, V domains shown) VH: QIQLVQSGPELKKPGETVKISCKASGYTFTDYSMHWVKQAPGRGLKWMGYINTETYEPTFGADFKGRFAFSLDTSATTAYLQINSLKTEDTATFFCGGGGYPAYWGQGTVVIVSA VL: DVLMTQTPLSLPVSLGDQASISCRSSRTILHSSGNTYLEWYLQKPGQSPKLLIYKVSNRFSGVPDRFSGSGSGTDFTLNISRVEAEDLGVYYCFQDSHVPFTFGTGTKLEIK
-- reply 184
